This listing pairs binders with measured Kd.
- Target or test system: CSB-HD (helicase-like domain) (human, UniProt Q03468 498-1002)
- Sequence (Q03468 498-1002): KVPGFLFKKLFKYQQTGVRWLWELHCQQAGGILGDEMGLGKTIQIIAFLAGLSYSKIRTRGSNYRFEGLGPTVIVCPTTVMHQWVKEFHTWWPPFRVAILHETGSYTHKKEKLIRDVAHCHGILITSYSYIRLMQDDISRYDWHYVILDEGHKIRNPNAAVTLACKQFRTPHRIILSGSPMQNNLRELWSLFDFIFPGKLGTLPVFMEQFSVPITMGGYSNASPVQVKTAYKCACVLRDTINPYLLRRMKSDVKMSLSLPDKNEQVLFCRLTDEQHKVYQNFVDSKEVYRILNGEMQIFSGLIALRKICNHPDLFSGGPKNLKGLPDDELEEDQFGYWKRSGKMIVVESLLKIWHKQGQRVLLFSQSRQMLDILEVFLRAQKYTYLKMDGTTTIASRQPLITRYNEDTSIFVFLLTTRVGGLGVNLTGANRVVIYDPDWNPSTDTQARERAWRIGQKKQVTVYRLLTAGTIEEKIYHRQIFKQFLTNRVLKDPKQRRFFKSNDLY
- Method notes: EMSA
Number in nM, nothing else.

[[record]]
binder = "ATAATTATAAATAAATAATAGGGAGGGAGACGGGGGGG (structured_DNA) [5'-tailed rDNA-3]"
measured_result = 0.977


Consider the record given below.
Query: State its Kd: ATAATTATAAATAAATAATAGGGTCGGGGGGTGGGGCCCGGGCCGGGG (structured_DNA) [5'-tailed rDNA-2]
Response: 0.36
